# EXPERIMENT_SUMMARY: Mammalian cell cytotoxicity assay, HEK293T (CellTiter-Glo, 72 h)
# CONDITION: human, HEK293T cells
Structures can show the parent of a compound that is named as a salt.
// reported CC50 at 72 h per item
MEASUREMENT_LABEL: CC50 at 72 h (nM)

{"columns": ["COMPOUND", "RELATION", "READOUT_VALUE"],
 "data": [
  ["CN(NC(=O)CC(=O)NN(C)C(=S)c1ccccc1)C(=S)c1ccccc1 [Elesclomol]", "=", 169],
  ["CCCCN(CCCC)CCC(O)c1cc2c(Cl)cc(Cl)cc2c2cc(C(F)(F)F)ccc12 (centres unmarked) [Halofantrine HCl]", ">", 9950],
  ["COc1ccc(CCN2CCC(Nc3nc4ccccc4n3Cc3ccc(F)cc3)CC2)cc1 [Astemizole]", ">", 9950],
  ["O=C(CCCCCCNC(=O)c1cnc(N(c2ccccc2)c2ccccc2)nc1)NO [Ricolinostat]", ">", 9950],
  ["CS(=O)(=O)CCNCc1ccc(-c2ccc3ncnc(Nc4ccc(OCc5cccc(F)c5)c(Cl)c4)c3c2)o1 [Lapatinib]", ">", 9950],
  ["COc1cc2ncnc(Nc3ccc(F)c(Cl)c3)c2cc1NC(=O)/C=C/CN1CCCCC1 [Dacomitinib]", "=", 2620],
  ["COCCNCc1ccc(-c2cc3nccc(Oc4ccc(NC(=O)C5(C(=O)Nc6ccc(F)cc6)CC5)cc4F)c3s2)nc1 [MG-516]", "=", 2250],
  ["O=C(/C=C/c1cccc(S(=O)(=O)Nc2ccccc2)c1)NO [Belinostat]", "=", 1290],
  ["CNCCCN1c2ccccc2CCc2ccccc21 [Desipramine]", ">", 9950],
  ["CN(C)c1ccc(C(=C2C=CC(=[N+](C)C)C=C2)c2ccc(N(C)C)cc2)cc1 [Gentian violet]", "=", 136],
  ["CN(C)CCCN1c2ccccc2CCc2ccccc21 [Imipramine hydrochloride]", ">", 9950],
  ["COc1cc2c(Oc3ccc(NC(=O)C4(C(=O)Nc5ccc(F)cc5)CC4)cc3F)ccnc2cc1OCCCN1CCOCC1 [Foretinib]", "=", 2370],
  ["Cc1c(-c2ccc(O)cc2)n(Cc2ccc(OCCN3CCCCCC3)cc2)c2ccc(O)cc12 [Bazedoxifene Acetate]", "=", 3040],
  ["CN(C)Cc1c(C(=O)NCCOc2ccc(C(=O)NO)cc2)oc2ccccc12 [Abexinostat]", "=", 376],
  ["c1ccc(Cn2c(N3CCNCC3)nc3ccccc32)cc1 [Lerisetron]", ">", 9950],
  ["C=CCn1c(=O)c2cnc(Nc3ccc(N4CCN(C)CC4)cc3)nc2n1-c1cccc(C(C)(C)O)n1 [MK-1775]", "=", 310],
  ["COc1ccc(C[C@H](N)C(=O)N[C@H]2[C@@H](O)[C@H](n3cnc4c(N(C)C)ncnc43)O[C@@H]2CO)cc1 [Puromycin]", "=", 1240]
]}

* * *

Please consider the recorded CC50 for HEK293T cells in what follows.

{"columns": ["MOLECULE", "TARGET_OF_ASSAY", "UNIT_INFO", "RELATION", "CC50"],
 "data": [
  ["CCCNCC(O)COc1ccccc1C(=O)CCc1ccccc1 (centres unmarked)", "HEK293T cells", "µM", ">", 9.95],
  ["NC(=O)[C@@H](CC1CC1)[C@@H](CCC(F)(F)F)C(=O)N[C@H]1N=C(c2ccccc2)c2cccc(F)c2NC1=O", "HEK293T cells", "µM", ">", 9.95],
  ["O=C1c2ccccc2C(=O)c2sc(-c3ccco3)nc21", "HEK293T cells", "µM", "=", 1.33],
  ["CCCCCN=C(N)Nc1nc(-c2cnc(C)[nH]2)cs1", "HEK293T cells", "µM", ">", 9.95],
  ["CCN(CC)CCN1C(=O)c2c(c3c4cccc(Cl)c4n([C@@H]4O[C@H](CO)[C@@H](OC)[C@H](O)[C@H]4O)c3c3[nH]c4c(Cl)cccc4c23)C1=O", "HEK293T cells", "µM", "=", 0.143],
  ["CC(C)CCNC(=O)C(CC(C)C)NC(=O)C1OC1C(=O)O (centres unmarked)", "HEK293T cells", "µM", ">", 9.95],
  ["CCOC(=O)[C@@H]1O[C@H]1C(=O)NC(CC(C)C)C(=O)N1CCN(Cc2ccc(OC)c(OC)c2OC)CC1 (some centres unmarked)", "HEK293T cells", "µM", ">", 9.95],
  ["Cn1/c(=N\\C#N)n(-c2ccc(C(C)(C)C#N)nc2)c2c3cc(-c4cnc(N)c(C(F)(F)F)c4)ccc3ncc21", "HEK293T cells", "µM", "=", 0.011],
  ["CCNCc1cncc(-c2ccc3[nH]nc(-c4nc5c(F)cc(F)cc5[nH]4)c3c2)c1C", "HEK293T cells", "µM", "=", 0.145],
  ["COc1ccc(C)cc1NC(=O)Nc1nc2ccc(Nc3ncnc4cc(OCCCN5CCN(C)CC5)c(OC)cc34)cc2s1", "HEK293T cells", "µM", "=", 3],
  ["CN(C)CCOc1ccc2[nH]c(C(=O)NCC#Cc3ccc(C(=O)NO)cc3)cc2c1", "HEK293T cells", "µM", "=", 0.836]
]}

* * *

# EXPERIMENT_SUMMARY: in vitro
# CONDITION: human

{"columns": ["COMPOUND", "CC50 at 72 h [nM]"],
 "data": [
  ["O=C(CC1NCCCC1O)Cn1cnc2cc(Br)c(Cl)cc2c1=O (stereo not shown) [Halofuginone, reference compound]", 88]
]}

* * *

// reported CC50 at 72 h per item
# EXPERIMENT_SUMMARY: Mammalian cell cytotoxicity assay, HepG2 (CellTiter-Glo, 72 h)
# CONDITION: human, HepG2 cells
MEASUREMENT_LABEL: CC50 at 72 h (nM)

{"columns": ["LINE_NOTATION", "READOUT_VALUE"],
 "data": [
  ["CC(=O)O[C@H]1C(=O)[C@@]2(C)[C@H]([C@H](OC(=O)c3ccccc3)[C@]3(O)C[C@H](OC(=O)[C@H](O)[C@@H](NC(=O)c4ccccc4)c4ccccc4)C(C)=C1C3(C)C)[C@]1(OC(C)=O)CO[C@@H]1C[C@@H]2O", 7040],
  ["CC(=O)O[C@@]12CO[C@@H]1C[C@H](O)[C@@]1(C)C(=O)[C@H](O)C3=C(C)[C@@H](OC(=O)[C@H](O)[C@@H](NC(=O)OC(C)(C)C)c4ccccc4)C[C@@](O)([C@@H](OC(=O)c4ccccc4)[C@H]21)C3(C)C", 24],
  ["COCCNCc1ccc(-c2cc3nccc(Oc4ccc(NC(=O)C5(C(=O)Nc6ccc(F)cc6)CC5)cc4F)c3s2)nc1", 1460]
]}

* * *

// reported pEC50 per item
# Tested on: P. falciparum Dd2-HLH
# EXPERIMENT_SUMMARY: microbe, parasite or virus in culture
# Type: cell-based, Plasmodium falciparum
# CONDITION: P. falciparum blood-stage parasites, 72 hours in culture; read-out: Blood stage 72h EC50
pEC50: −log10 of the molar value. Where a name gives a salt, the structure may show the parent alone.

{"columns": ["COMPOUND", "pEC50"],
 "data": [
  ["CCNCc1cncc(-c2ccc3[nH]nc(-c4nc5c(F)cc(F)cc5[nH]4)c3c2)c1C [AG-024322]", 6.37],
  ["Cc1ncc(NC(=O)c2ccc(CN3CCN(C)CC3)c(C(F)(F)F)c2)cc1Nc1nccc(-c2cccnc2)n1 [Flumatinib mesylate]", 6.67],
  ["Cc1ccc(CCCO)c(NCc2ccc3nc(NCCCN4CCOCC4)n(Cc4nc(C)ccc4O)c3c2)c1 [TMC-353121]", 6.19],
  ["COc1cc2c(Nc3ccc(NC(=O)c4ccccc4)cc3)ncnc2cc1OCCCN1CCOCC1 [ZM447439]", 6.19],
  ["COc1cc2nc(-c3ccc(N4CCN(C)CC4)cc3)nc(NCCN3CCOCC3)c2cc1OC [CPG-52364]", 6.42],
  ["CCCCCN=C(N)Nc1nc(-c2cnc(C)[nH]2)cs1 [CP 66948]", 6.01],
  ["O=C1c2ccccc2C(=O)c2sc(-c3ccco3)nc21 [INO-5042]", 6.39],
  ["Oc1ccc(CCN2CCC(Nc3nc4ccccc4n3Cc3ccc(F)cc3)CC2)cc1 [Desmethylastemizole]", 7.33]
]}

* * *

# EXPERIMENT_SUMMARY: Mammalian cell cytotoxicity assay, HEK293T (CellTiter-Glo, 72 h)
# CONDITION: human, HEK293T cells
// reported CC50 at 72 h per item

{"columns": ["COMPOUND", "UNIT_INFO", "RELATION", "CC50 at 72 h"],
 "data": [
  ["COC1=C(C)C(=O)C2=C(C1=O)[C@@H](COC(N)=O)[C@@]1(OC)[C@H]3N[C@H]3CN21 [mitomycin A, reference compound]", "nM", "=", 362],
  ["COC(=O)[C@@]12OC[C@]34[C@H]([C@@H](O)[C@@H]1O)[C@@]1(C)CC(=O)C(O)=C(C)[C@@H]1C[C@H]3OC(=O)[C@H](OC(=O)/C=C(\\C)C(C)C)[C@@H]24 [Bruceantin, reference compound]", "nM", "=", 25],
  ["C=C[C@H]1C[N@@]2CC[C@H]1C[C@@H]2[C@@H](O)c1ccnc2ccc(OC)cc12 [Quinidine]", "nM", ">", 9950],
  ["COCCN1CCN(Cc2ccc(-c3n[nH]c4c3C(=O)c3c(NC(=O)NN5CCOCC5)cccc3-4)cc2)CC1 [RGB-286638]", "nM", "=", 58],
  ["CC[C@]1(O)C[C@@H]2CN(CCc3c([nH]c4ccccc34)[C@@](C(=O)OC)(c3cc4c(cc3OC)N(C)[C@H]3[C@@](O)(C(N)=O)[C@H](O)[C@]5(CC)C=CCN6CC[C@]43[C@@H]65)C2)C1 [Vindesine]", "nM", ">", 9950],
  ["CC(C)n1nc(-c2ccc3oc(N)nc3c2)c2c(N)ncnc21 [Sapanisertib]", "nM", "=", 102]
]}
